The values you see were collected from patent US12612409B2.

# tested.target: recombinant F508del V470 CFTR in Fischer rat thyroid (FRT) cells (Homo sapiens, UniProt P13569, DEL508-508)
# Sequence (P13569 with tags, fused parts or gaps DEL508-508): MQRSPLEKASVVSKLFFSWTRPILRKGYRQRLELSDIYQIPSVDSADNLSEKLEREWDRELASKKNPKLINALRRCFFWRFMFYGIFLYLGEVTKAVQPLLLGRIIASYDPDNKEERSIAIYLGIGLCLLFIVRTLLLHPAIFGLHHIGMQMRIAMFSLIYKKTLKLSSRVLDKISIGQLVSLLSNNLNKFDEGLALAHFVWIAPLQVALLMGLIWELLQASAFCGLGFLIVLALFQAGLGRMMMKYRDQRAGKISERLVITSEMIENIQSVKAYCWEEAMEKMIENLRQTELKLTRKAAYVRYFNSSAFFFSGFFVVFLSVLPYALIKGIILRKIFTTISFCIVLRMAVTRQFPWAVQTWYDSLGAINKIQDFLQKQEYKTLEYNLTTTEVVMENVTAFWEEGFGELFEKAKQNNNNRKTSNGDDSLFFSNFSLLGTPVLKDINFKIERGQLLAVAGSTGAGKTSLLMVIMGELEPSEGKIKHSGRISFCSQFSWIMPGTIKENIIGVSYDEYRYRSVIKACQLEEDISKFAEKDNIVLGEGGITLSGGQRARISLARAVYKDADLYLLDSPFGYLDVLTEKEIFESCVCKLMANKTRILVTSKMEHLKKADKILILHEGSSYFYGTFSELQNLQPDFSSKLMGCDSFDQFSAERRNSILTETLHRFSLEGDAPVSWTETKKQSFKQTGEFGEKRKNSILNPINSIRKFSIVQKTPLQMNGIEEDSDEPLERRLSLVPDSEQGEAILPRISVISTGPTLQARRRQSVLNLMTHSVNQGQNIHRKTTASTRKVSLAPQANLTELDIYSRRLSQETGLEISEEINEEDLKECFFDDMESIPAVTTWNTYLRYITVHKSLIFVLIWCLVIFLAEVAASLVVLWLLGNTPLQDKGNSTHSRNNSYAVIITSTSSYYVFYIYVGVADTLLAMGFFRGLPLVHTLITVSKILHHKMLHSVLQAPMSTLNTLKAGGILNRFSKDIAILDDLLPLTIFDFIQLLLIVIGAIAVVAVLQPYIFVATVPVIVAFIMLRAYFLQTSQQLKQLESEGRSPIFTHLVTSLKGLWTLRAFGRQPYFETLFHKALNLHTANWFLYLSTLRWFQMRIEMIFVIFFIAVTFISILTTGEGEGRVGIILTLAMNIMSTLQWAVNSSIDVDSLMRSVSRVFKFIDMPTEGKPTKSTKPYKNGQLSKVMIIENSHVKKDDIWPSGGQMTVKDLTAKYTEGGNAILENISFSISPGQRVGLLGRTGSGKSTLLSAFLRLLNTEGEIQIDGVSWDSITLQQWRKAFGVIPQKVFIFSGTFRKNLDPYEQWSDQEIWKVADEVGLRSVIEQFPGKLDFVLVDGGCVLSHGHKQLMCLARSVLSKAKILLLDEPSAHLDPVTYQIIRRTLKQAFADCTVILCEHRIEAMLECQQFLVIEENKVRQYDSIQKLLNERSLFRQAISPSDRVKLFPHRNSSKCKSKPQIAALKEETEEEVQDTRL
# procedure.summary: FRT ion flux assay of F508del CFTR potentiation
# experimental.context: FRT cells expressing F508del V470 CFTR, forskolin 20 uM, 27° C. pre-incubation
pEC50: −log10 of the molar value.
Note to self: class labels come from recorded pEC50, ranges listed here: bin 1 = under 7, bin 2 = from 7 up to 8, bin 3 = 8 and over

[[record]]
molecule = "CCC(c1cn(-c2ccccc2F)nn1)n1cc(C2CC2)c2c(N)ncnc21 (stereo not drawn) [Example 236]"
group = "bin 2"

[[record]]
molecule = "CCC(c1cn(-c2ccccc2F)nn1)n1cc(-c2nccnc2OC)c2c(N)ncnc21 (single isomer, unassigned; enantiomer 1) [Example 135]"
group = "bin 1"

[[record]]
molecule = "CC(c1cc(-c2ccccc2F)no1)n1cc(-c2ccc(N(C)C)cc2)c2c(N)ncnc21 (stereo not drawn) [Example 105]"
group = "bin 1"

[[record]]
molecule = "CC(c1cn(CC2CCC2)nn1)n1cc(-c2ccc(Cl)cc2)c2c(N)ncnc21 (stereo not drawn) [Example 255]"
group = "bin 1"

[[record]]
molecule = "Cc1c(C(C)n2cc(-c3cnc(C(F)(F)F)nc3)c3c(N)ncnc32)nnn1-c1ccccc1F (single isomer, unassigned; enantiomer 2) [Example 180]"
group = "bin 1"

[[record]]
molecule = "CCC(c1cn(-c2ccccc2F)nn1)n1cc(-c2cnc(N(C)C)nc2)c2c(N)ncnc21 (single isomer, unassigned; enantiomer 1) [Example 145]"
group = "bin 2"

[[record]]
molecule = "CC(c1cn(-c2ccc(F)cc2F)nn1)n1c(C#N)c(-c2cnc(C(F)(F)F)nc2)c2c(N)ncnc21 (single isomer, unassigned) [Example 11]"
group = "bin 2"

[[record]]
molecule = "CC(C)c1cc(Cn2cc(-c3ccc(Cl)cc3)c3c(N)ncnc32)on1 [Example 283]"
group = "bin 1"

[[record]]
molecule = "CCC(c1cn(-c2ccccc2)nn1)n1cc(-c2cncnc2OC)c2c(N)ncnc21 (single isomer, unassigned; enantiomer 1) [Example 127]"
group = "bin 1"

[[record]]
molecule = "CC(c1cn(-c2ccccc2F)nn1)n1cc(-c2cc[nH]n2)c2c(N)ncnc21 (single isomer, unassigned; enantiomer 1) [Example 121]"
group = "bin 2"

[[record]]
molecule = "CCC(c1cn(-c2ccccc2F)nn1)n1cc(-c2ccc(OC(F)F)nc2)c2c(N)ncnc21 (single isomer, unassigned; enantiomer 2) [Example 142]"
group = "bin 3"

[[record]]
molecule = "CSc1ccc(-c2cn(C(C)c3cn(-c4ccccc4F)nn3)c3ncnc(N)c23)c(F)c1 (stereo not drawn) [Example 90]"
group = "bin 2"

[[record]]
molecule = "CC(c1cn(-c2ccccc2F)nn1)n1cc(-c2ccc(OC3CC3)cc2)c2c(N)ncnc21 (single isomer, unassigned; enantiomer 2) [Example 118]"
group = "bin 1"

[[record]]
molecule = "CCC(c1cn(-c2ccc(F)cc2F)nn1)n1cc(-c2cnc(OC)c(F)c2)c2c(N)ncnc21 (single isomer, unassigned; enantiomer 2) [Example 166]"
group = "bin 2"

[[record]]
molecule = "CC(c1cnn(-c2ccccc2F)c1)n1c(C#N)c(-c2cnc(C(F)(F)F)nc2)c2c(N)ncnc21 (single isomer, unassigned) [Example 6]"
group = "bin 3"

[[record]]
molecule = "Nc1ncnc2c1c(C1CN(C(=O)C3CC3)C1)cn2Cc1cn(-c2ccccc2F)nn1 [Example 292]"
group = "bin 1"

[[record]]
molecule = "CCC(c1cn(-c2ccccc2F)nn1)n1cc(-c2cc(F)cnc2OC)c2c(N)ncnc21 (single isomer, unassigned; enantiomer 1) [Example 139]"
group = "bin 3"

[[record]]
molecule = "CCC(c1cn(-c2ccc(F)cc2F)nn1)n1cc(-c2cncnc2OC)c2c(N)ncnc21 (stereo not drawn) [Example 246]"
group = "bin 2"

[[record]]
molecule = "CCC(c1cn(-c2ccccc2F)nn1)n1cc(-c2cnco2)c2c(N)ncnc21 (stereo not drawn) [Example 225]"
group = "bin 2"

[[record]]
molecule = "Nc1ncnc2c1c(-c1cnc(C(F)(F)F)nc1)c(Br)n2Cc1cnn(-c2ccccc2F)c1 [Example 40]"
group = "bin 3"


###

# tested.target: CFTR in F508del/F508del primary CF hBE cells (Homo sapiens, UniProt P13569, DEL508-508)
# Construct: Primary cystic fibrosis human bronchial epithelial (CF hBE) cells were expanded and cultured; endogenous in cells; host or cells: primary CF human bronchial epithelial cells, genotype F508del/F508del
# Sequence (P13569 with tags, fused parts or gaps DEL508-508): as above
# procedure.summary: Ussing chamber electrophysiology assay of CFTR potentiation in F508del/F508del CF bronchial epithelial cells (27° C.)
# Assay type: cell-based
# maps each entry to its EC50
measured.endpoint: EC50 (nM)

[[record]]
molecule = "CC(c1cn(-c2ccccc2F)nn1)n1cc(-c2ccccc2)c2c(N)ncnc21 (stereo not drawn)"
reading = 140

[[record]]
molecule = "COc1ncccc1-c1cn(C(C)c2cn(-c3ccccc3F)nn2)c2ncnc(N)c12 (single isomer, unassigned) [Example 113]"
reading = 818

[[record]]
molecule = "CCOc1ccc(-c2cn(Cc3cn(-c4ccccc4F)nn3)c3ncnc(N)c23)cc1F"
reading = 38

[[record]]
molecule = "CCC(c1cn(-c2ccccc2F)nn1)n1cc(C2CC2)c2c(N)ncnc21 (stereo not drawn) [Example 236]"
reading = 38.8

[[record]]
molecule = "CCC(c1cn(-c2cc(F)ccc2F)nn1)n1cc(-c2cc(F)cnc2OC)c2c(N)ncnc21 (single isomer, unassigned; enantiomer 2) [Example 172]"
reading = 77.6

[[record]]
molecule = "Nc1ncnc2c1c(-c1ccc(OC3CC3)cc1)cn2Cc1cn(-c2ccccc2F)nn1"
reading = 17.4

[[record]]
molecule = "Nc1ncnc2c1c(-c1cccc3ncoc13)cn2Cc1cn(-c2ccccc2F)nn1"
reading = 273

[[record]]
molecule = "COc1ncncc1-c1cn(Cc2cn(-c3ccccc3F)nn2)c2ncnc(N)c12"
reading = 478

[[record]]
molecule = "CC(c1cc(-c2cccc(F)c2)no1)n1cc(-c2ccc(Cl)cc2)c2c(N)ncnc21 (stereo not drawn)"
reading = 136

[[record]]
molecule = "CCC(c1cn(-c2ccccc2F)nn1)n1cc(-c2ccc(Cl)cc2)c2c(N)ncnc21 (single isomer, unassigned; enantiomer 2) [Example 132]"
reading = 11.3

[[record]]
molecule = "CCC(c1cn(-c2cc(F)ccc2F)nn1)n1cc(-c2cncnc2OC)c2c(N)ncnc21 (single isomer, unassigned; enantiomer 1) [Example 307]"
reading = 55.4

[[record]]
molecule = "COc1ncccc1-c1cn(Cc2nnc(-c3ccccc3)[nH]2)c2ncnc(N)c12"
reading = 833

[[record]]
molecule = "CC(c1cnc(-c2ccccc2F)[nH]1)n1cc(-c2ccc(C(F)(F)F)nc2)c2c(N)ncnc21 (stereo not drawn)"
reading = 80.3

[[record]]
molecule = "CC(c1cn(-c2ccc(F)cc2F)nn1)n1c(C#N)c(-c2cnc(C(F)(F)F)nc2)c2c(N)ncnc21 (single isomer, unassigned)"
reading = 33.5

[[record]]
molecule = "CCC(c1cn(-c2ccc(F)c(F)c2)nn1)n1cc(-c2cnc(C(F)(F)F)nc2)c2c(N)ncnc21 (single isomer, unassigned; enantiomer 2) [Example 154]"
reading = 327

[[record]]
molecule = "CC(C)n1cc(Cn2c(C#N)c(-c3ccc(Cl)cc3)c3c(N)ncnc32)cn1"
reading = 41

[[record]]
molecule = "CCC(c1cn(-c2ccccc2)nn1)n1cc(-c2ccc(OC)nc2)c2c(N)ncnc21 (single isomer, unassigned; enantiomer 1) [Example 125]"
reading = 199

[[record]]
molecule = "COc1cnc(-c2cn(C(C)c3cc(-c4ccccc4F)no3)c3ncnc(N)c23)cn1 (stereo not drawn)"
reading = 103

[[record]]
molecule = "CCC(c1cn(-c2ccc(F)c(F)c2)nn1)n1cc(-c2cncnc2OC)c2c(N)ncnc21 (single isomer, unassigned; enantiomer 1) [Example 151]"
reading = 35.5

[[record]]
molecule = "CCC(c1cn(-c2cccc(F)c2F)nn1)n1cc(-c2cncnc2OC)c2c(N)ncnc21 (single isomer, unassigned; enantiomer 1) [Example 305]"
reading = 372

[[record]]
molecule = "Cc1c(C(C)n2c(C#N)c(-c3cnc(C(F)(F)F)nc3)c3c(N)ncnc32)nnn1-c1ccccc1F (single isomer, unassigned) [Example 13]"
reading = 267

[[record]]
molecule = "CCC(c1cn(-c2cc(F)ccc2F)nn1)n1cc(-c2cncnc2OC)c2c(N)ncnc21 (single isomer, unassigned; enantiomer 2) [Example 308]"
reading = 430

[[record]]
molecule = "CC(c1cn(-c2ncccc2F)nn1)n1ccc2c(Nc3ccc(OC4CC4)cc3)ncnc21 (stereo not drawn)"
reading = 39.6

[[record]]
molecule = "COc1ncccc1-c1cn(C(C)c2cn(-c3ccccc3F)nn2)c2ncnc(N)c12 (single isomer, unassigned; enantiomer 2) [Example 114]"
reading = 75.8


###

# maps each entry to its EC50
# tested.target: recombinant F508del V470 CFTR in Fischer rat thyroid (FRT) cells (Homo sapiens, UniProt P13569, DEL508-508)
# Construct: expressed in transfected cells
# procedure.summary: FRT ion flux assay of F508del CFTR potentiation
# Type: cell-based
# experimental.context: FRT cells expressing F508del V470 CFTR, forskolin 20 uM, 27° C. pre-incubation
measured.endpoint: EC50 (nM)

[[record]]
molecule = "CC(c1cn(-c2ccccc2F)nn1)n1cc(-c2ccc(C#N)c(F)c2)c2c(N)ncnc21 (stereo not shown) [Example 239]"
measured_endpoint = "EC50"
reading = 94.4

[[record]]
molecule = "CCC(c1cnn(-c2ccc(F)cc2F)c1)n1c(C#N)c(-c2cnc(C(F)(F)F)nc2)c2c(N)ncnc21 (single isomer, unassigned) [Example 20]"
measured_endpoint = "EC50"
reading = 14.1

[[record]]
molecule = "CC(c1cn(-c2ccccc2F)nn1)n1c(C#N)c(-c2cnc(C(F)(F)F)nc2)c2c(N)ncnc21 (single isomer, unassigned) [Example 10]"
measured_endpoint = "EC50"
reading = 77.6

[[record]]
molecule = "CCC(c1cn(-c2ccccc2F)nn1)n1cc(-c2cncnc2OC)c2c(N)nc(C)nc21 (single isomer, unassigned; enantiomer 2) [Example 304]"
measured_endpoint = "EC50"
reading = 190

[[record]]
molecule = "CCC(c1cn(-c2ccccc2F)nn1)n1cc(-c2cncnc2OC)c2c(N)nc(C)nc21 (single isomer, unassigned; (+)) [Example 303]"
measured_endpoint = "EC50"
reading = 2740

[[record]]
molecule = "CCC(c1cn(-c2cccc(F)c2F)nn1)n1c(C#N)c(-c2cnc(C(F)(F)F)nc2)c2c(N)ncnc21 (single isomer, unassigned) [Example 19]"
measured_endpoint = "EC50"
reading = 69.6

[[record]]
molecule = "COc1ncncc1-c1cn(C(c2cn(-c3ccccc3F)nn2)C2CC2)c2ncnc(N)c12 (stereo not shown) [Example 243]"
measured_endpoint = "EC50"
reading = 56.2

[[record]]
molecule = "CC(c1cn(-c2ccccc2F)nn1)n1cc(-c2ccc(Cl)cc2)c2c(N)ncnc21 (single isomer, unassigned) [Example 112]"
measured_endpoint = "EC50"
reading = 68.6

[[record]]
molecule = "Nc1ncnc2c1c(-c1ccc(Cl)cc1)cn2Cc1nc(-c2ccccc2)c[nH]1"
measured_endpoint = "EC50"
reading = 909

[[record]]
molecule = "COc1cc2c(cc1-c1cn(C(C)c3cn(-c4ccccc4F)nn3)c3ncnc(N)c13)CCCC2 (stereo not shown)"
measured_endpoint = "EC50"
reading = 691

